# key: entry, value: Cell Survival Rate (increased percentage of cell survival compared with the Group of 5-FU)
System: HaCaT cells
assay.text: Relief of 5-FU proliferative toxicity to HaCaT cells (CCK-8 cell survival)
Format: cell-based
assay.context: 5-Fu 20 μM; selected compound final concentration 0.8 μM; HaCaT cells

{"compound": "Cc1cn([C@H]2C[C@H](O)[C@@H](COC(=O)C(C)c3cccc(C(=O)c4ccccc4)c3)O2)c(=O)[nH]c1=O (stereo partly shown)", "recorded.result": "36%-42%"}
{"compound": "CC1=C(CC(=O)OC[C@H]2O[C@@H](n3cc(C)c(=O)[nH]c3=O)C[C@@H]2O)c2cc(F)ccc2/C1=C\\c1ccc([S+](C)[O-])cc1 (stereo partly shown)", "recorded.result": "42%-50%"}
{"compound": "Cc1ccc(C(=O)c2ccc(CC(=O)O[C@H]3C[C@H](n4cc(C)c(=O)[nH]c4=O)O[C@@H]3CO)n2C)cc1", "recorded.result": "34%-41%"}
{"compound": "Cc1cn([C@H]2C[C@H](O)[C@@H](COC(=O)Cc3ccccc3Nc3c(Cl)cccc3Cl)O2)c(=O)[nH]c1=O", "recorded.result": "36%-43%"}
{"compound": "Cc1cn([C@H]2C[C@H](O)[C@@H](COC(=O)[C@@H](C)c3ccc(CC(C)C)cc3)O2)c(=O)[nH]c1=O", "recorded.result": "23%-30%"}

Form field Cell Survival Rate (increased percentage of cell survival compared with the Group of 5-FU), entry `CCC(CC)COC(=O)[C@H](C)N[P@](=O)(OC[C@H]1O[C@@H](n2cc(C)c(=O)[nH]c2=O)C[C@@H]1O)Oc1ccccc1` : 26%-34%

Just so you know, measured Cell Survival Rate (increased percentage of cell survival compared with the Group of 5-FU) for `COc1ccc2cc([C@H](C)C(=O)O[C@H]3C[C@H](n4cc(C)c(=O)[nH]c4=O)O[C@@H]3CO)ccc2c1` came out at 38%-45%
